Test system: HBV
ASSAY EXPLANATION: Anti-HBV activity in HepG2.2.15 stable transfected cell line, HBV DNA from secreted virions by realtime PCR
Assay type: cell-based
DETAILS: Hepatitis B virus, HepG2.2.15, 144 h, read-out: HBV - HepG2.15
PARAMETER MEASURED: EC50

                                smiles_data  tested_on  result
0  O=S(=O)(NC1CCCCC1)c1ccc2onc(Nc3ccc(F)cc3)c2c1        HBV  740 nM

----------
Tested on: HBV
ASSAY EXPLANATION: Anti-HBV activity in HepG2.117 inducible HBV producing cell line (Tet-off), intracellular HBV DNA by realtime PCR
Type: cell-based
DETAILS: Hepatitis B virus, 72 h; HepG2.117 cells, 3 days of treatment, intracellular HBV DNA; read-out: HepG2 117 EC50
PARAMETER MEASURED: EC50

In [3]: df
Out[3]:
                                   molecule  parameter_measured   result
0  COC(=O)n1nc(Nc2ccc(F)cc2)c2cc(S(=O)(=O)NC3CCCC3)ccc21 [Compound 10]                EC50  > 25 µM
1  O=S(=O)(NC1CCCCC1)c1ccc2[nH]nc(Nc3ccc(F)cc3)c2c1 [Compound 3]                EC50   4.6 µM
2  Cc1cc(Nc2ncc3ccc(S(=O)(=O)N[C@H]4CCOC4)cn23)ccc1F [Compound 18]                EC50  > 25 µM
3  Cn1nc(Nc2ccc(F)c(C(F)F)c2)c2cc(S(=O)(=O)N[C@H]3CCOC3)ccc21 [Compound 16]                EC50   4.5 µM
4  Cc1cc(Nc2nnc3ccc(S(=O)(=O)NC(C)C)cn23)ccc1F [Compound 19]                EC50   3.4 µM
5  O=S(=O)(NC1CCCC1)c1ccc2[nH]nc(Nc3ccc(F)cc3)c2c1 [Compound 5]                EC50   1.8 µM
6  Cc1cc(Nc2n[nH]c3ccc(S(=O)(=O)N[C@H]4CCOC4)cc23)ccc1F [Compound 12]                EC50  > 25 µM
7  CC(C)NS(=O)(=O)c1ccc2[nH]nc(Nc3ccc(F)c(F)c3)c2c1 [Compound 13]                EC50  > 25 µM
8  Cn1nc(Nc2ccc(F)cc2)c2cc(S(=O)(=O)NC3CCCC3)ccc21 [Compound 6]                EC50  0.82 µM

----------
System: HBV
ASSAY EXPLANATION: Anti-HBV activity in HepG2.117 inducible HBV producing cell line (Tet-off), intracellular HBV DNA by realtime PCR
Type: cell-based
DETAILS: Hepatitis B virus, 72 h; HepG2.117 cells, 3 days of treatment, intracellular HBV DNA; read-out: HepG2 117 EC50
pEC50: −log10 of the molar value.
Label scheme for pEC50: lower than 5 is Condition not met, 5 and above is Condition met.

>>> print(df.to_string())
                                smiles_data  qualitative_label
0  CC(=O)n1nc(Nc2ccc(F)cc2)c2cc(S(=O)(=O)NC3CCCC3)ccc21  Condition not met
1  CC(C)n1nc(Nc2ccc(F)cc2)c2cc(S(=O)(=O)NC3CCCC3)ccc21  Condition not met
2  O=S(=O)(NC1CCCC1)c1ccc2c(c1)c(Nc1ccc(F)cc1)nn2C1CC1      Condition met
3  CC(C)NS(=O)(=O)c1ccc2c(c1)c(Nc1ccc(F)c(C(F)F)c1)nn2C      Condition met
4  CC(C)NS(=O)(=O)c1ccc2cnc(Nc3ccc(F)c(C(F)F)c3)n2c1  Condition not met

----------
System: HBV
ASSAY EXPLANATION: Anti-HBV activity in HepG2.2.15 stable transfected cell line, HBV DNA from secreted virions by realtime PCR
Format: cell-based
DETAILS: Hepatitis B virus, 144 h, HepG2.2.15 cells, 6 days of treatment, HBV DNA from secreted virions, read-out: HBV - HepG2.15
Entries and their measured log10 EC50 follow.
PARAMETER MEASURED: log10 EC50 (log10 of the value in µM)

In [3]: df
Out[3]:
                                 smiles_data  parameter_measured  recorded_number
 0  COC(=O)n1nc(Nc2ccc(F)cc2)c2cc(S(=O)(=O)NC3CCCC3)ccc21          log10 EC50             1.67
 1  Cc1cc(Nc2nn(C)c3ccc(S(=O)(=O)N[C@H]4CCOC4)cc23)ccc1F          log10 EC50             0.04
 2  Cc1cc(Nc2ncc3ccc(S(=O)(=O)N[C@H]4CCOC4)cn23)ccc1F          log10 EC50             0.23
 3  Cn1nc(Nc2ccc(F)cc2)c2cc(S(=O)(=O)NC3CCCC3)ccc21          log10 EC50            -0.31
 4  CC(C)NS(=O)(=O)c1ccc2cnc(Nc3ccc(F)c(C(F)F)c3)n2c1          log10 EC50            -0.25
 5  Cn1nc(Nc2ccc(F)c(C(F)F)c2)c2cc(S(=O)(=O)N[C@H]3CCOC3)ccc21          log10 EC50             0.11
 6  CC(C)NS(=O)(=O)c1ccc2c(c1)c(Nc1ccc(F)c(C(F)F)c1)nn2C          log10 EC50            -0.36
 7  O=S(=O)(NC1CCCC1)c1ccc2c(c1)c(Nc1ccc(F)cc1)nn2C1CC1          log10 EC50            -0.68
 8  O=S(=O)(NC1CCCC1)c1ccc2[nH]nc(Nc3ccc(F)cc3)c2c1          log10 EC50             0.00
 9  O=S(=O)(NC1CCCCC1)c1ccc2[nH]nc(Nc3ccc(F)cc3)c2c1          log10 EC50             0.00
10  Cc1cc(Nc2nnc3ccc(S(=O)(=O)NC(C)C)cn23)ccc1F          log10 EC50             0.08
11  O=S(=O)(N[C@H]1CCOC1)c1ccc2[nH]nc(Nc3ccc(F)c(F)c3)c2c1          log10 EC50             0.52
12  CC(C)NS(=O)(=O)c1ccc2[nH]nc(Nc3ccc(F)c(F)c3)c2c1          log10 EC50             0.95
13  Cc1cc(Nc2n[nH]c3ccc(S(=O)(=O)N[C@H]4CCOC4)cc23)ccc1F          log10 EC50             0.72
